Would you kindly list t1/2 for each of these binders?
# assay-system: T1, scHLA-B27-mmH (engineered HLA-B*27 ectodomain in-line fusion protein) (human (HLA-B*2705, beta-2 …))
# T1 construct: also called soluble HLA-B*27 fusion protein
# method-description: SPR (Biacore), mAb captured, 25 C, PBS pH 5.75
Output spec: scalar in min, unitless text.

Consider the binder shown here: H4H2477N2 (antibody, V domains shown) VH: QVQLQQWGAGLLKPSETLSLTCAVYGGSFSDYYWSWIRQPPGKGLEWIGEINHRGNTNYNPSLKSRVTISVDTSKNQFSLKLRSVTAADMAVYYCARIQLWLRGYDYYGMDVWGQGTTVTVSS VL: DIQMTQSPSSLSASVGDRVTITCRASQGIRNDLGWYQQKPGKAPKRLIYAASSLQGGVPSRFSGSGSGTEFSLTISSLQPEDFASYYCLQHNTYPWTFGQGTKVEIK What is its recorded t1/2?
5

Which t1/2 is listed for H4H2538P (antibody, V domains shown) VH: QVQLVQSGAEVKKPGASVKVSCKASGYTFTDYYMHWVRQAPGQGLEWIGWINPNSGGSNFAQKFQGRVTMTRDTSISTAYMELSRLRSDDTAVYYCARKAGYTSSWFDYWGQGTLVTVSS VL: DIVMTQSPDSLAVSLGERATINCKSSQSVLYSFNNKNYLSWYQQKPGQPPKLLIYWASTRESGVPDRFSGSGSGTDFTLTISSLQAEDAAVYYCQQYYSMITFGQGTRLEIK ?
44

If you can, please state the reported t1/2 value of H4H2560P (antibody, V domains shown) VH: QVQLVQSGAEVKKPGASVKVSCKASGYTFTGYFIHWVRQAPGQGLEWVGWINPTSGGTNYAQKFQGRVTMTRDTSISTAYMEMNSLRSDDTAVYYCARKAGYTSTWFDYWGQGTTVTVSS VL: DIVMTQSPDSLTVSLGERATINCKSSQSVLYSSKNKNYLAWYQQKPGQPPNLLVYWASTRESGVPDRFSGSGSGTDFTLTISSLQAEDVAVYYCQQYYSMITFGQGTRLEIK .
6
